# Test system: foxtail, giant
# experimentalDetails: Test C postemergence
# Type: in vivo, Setaria faberii
# testContext: 31 g ai/ha
testReadout: Plant response rating (scale of 0 to 100 where 0 is no effect and 100 is complete control)
Lab note: jot down the number only; don't add units.

Can you look up the measured Plant response rating (scale of 0 to 100 where 0 is no effect and 100 is complete control) of COc1nc(-c2ccc(Cl)cc2)nn1Cc1ccnc(C(F)(F)F)c1 [Compound 28] for me?
15

Can you look up the measured Plant response rating (scale of 0 to 100 where 0 is no effect and 100 is complete control) of CCc1nc(-c2ccc(C(F)(F)F)cc2)nn1Cc1ccnc(C(F)(F)F)c1 [Compound 1] for me?
35

Can you look up the measured Plant response rating (scale of 0 to 100 where 0 is no effect and 100 is complete control) of COc1nc(-c2ccc(C(F)(F)F)cc2)nn1Cc1ccnc(C(F)(F)F)c1 [Compound 25] for me?
10

Can you look up the measured Plant response rating (scale of 0 to 100 where 0 is no effect and 100 is complete control) of CCOc1nc(-c2ccccc2)nn1Cc1ccnc(C(F)(F)F)c1 [Compound 27] for me?
5

###

# Tested on: sedge, umbrella
# experimentalDetails: Test B flooded paddy test
# Assay type: in vivo, Cyperus difformis
# testContext: 250 g ai/ha, applied to paddy water at 2-leaf stage, visual rating after 13 to 15 d, scale 0 (no effect) to 100 (complete control)
testReadout: Plant response rating, Sedge, Umbrella, Flood

Can you look up the measured Plant response rating, Sedge, Umbrella, Flood of CCOc1nc(-c2ccc(Cl)cc2)nn1Cc1ccnc(C(F)(F)F)c1 for me?
90

Can you look up the measured Plant response rating, Sedge, Umbrella, Flood of COc1nc(-c2ccc(C(F)(F)F)cc2)nn1Cc1ccnc(C(F)(F)F)c1 for me?
95

Can you look up the measured Plant response rating, Sedge, Umbrella, Flood of CCc1nc(-c2cccc(C(F)(F)F)c2)nn1Cc1ccnc(C(F)(F)F)c1 for me?
0

Can you look up the measured Plant response rating, Sedge, Umbrella, Flood of FC(F)(F)COc1nc(-c2ccccc2)nn1Cc1ccnc(C(F)(F)F)c1 for me?
85

###

# System: barnyardgrass
# experimentalDetails: Test C preemergence
# Assay type: in vivo, Echinochloa crus-galli
# testContext: Preemergence, 62 g ai/ha, visual rating after 13 to 15 d
testReadout: Barnyardgrass plant response rating (0 to 100)
Lab note: jot down the number only; don't add units.

Can you look up the measured Barnyardgrass plant response rating (0 to 100) of CCCc1nc(-c2ccc(F)cc2)nn1Cc1ccnc(C(F)(F)F)c1 [Compound 6] for me?
75

Can you look up the measured Barnyardgrass plant response rating (0 to 100) of CCOc1nc(-c2ccccc2)nn1Cc1ccnc(C(F)(F)F)c1 [Compound 27] for me?
90

Can you look up the measured Barnyardgrass plant response rating (0 to 100) of FC(F)(F)COc1nc(-c2ccccc2)nn1Cc1ccnc(C(F)(F)F)c1 [Compound 24] for me?
45

Can you look up the measured Barnyardgrass plant response rating (0 to 100) of COc1nc(-c2ccc(F)cc2)nn1Cc1ccnc(C(F)(F)F)c1 [Compound 9] for me?
35

Can you look up the measured Barnyardgrass plant response rating (0 to 100) of COc1nc(-c2ccccc2)nn1Cc1ccnc(C(F)(F)F)c1 [Compound 32] for me?
5
